Each record here notes measured K.F. (%).
# experimental-details: Recrystallization screen for bupropion hydrobromide polymorphic forms (PXRD)
# Format: physicochemical
# recorded-conditions: recrystallized product; solvent/cosolvent differ per trial, trial no. in label
Don't forget the unit after the number, please.

Here are 4 molecules together with their reported answers.
INSERT INTO measurements (molecule, recorded_result) VALUES
  ('Br.CC(NC(C)(C)C)C(=O)c1cccc(Cl)c1 (centres unmarked) [Bupropion Hydrobromide 099]', '0.12%'),
  ('Br.CC(NC(C)(C)C)C(=O)c1cccc(Cl)c1 (centres unmarked) [Bupropion Hydrobromide 098B]', '0.16%'),
  ('Br.CC(NC(C)(C)C)C(=O)c1cccc(Cl)c1 (centres unmarked) [Bupropion Hydrobromide 108]', '0.14%'),
  ('Br.CC(NC(C)(C)C)C(=O)c1cccc(Cl)c1 (centres unmarked) [Bupropion Hydrobromide 097]', '0.06%');

Please turn your attention to the following entry.
# get_value(readout='K.F. (%)', item= Br.CC(NC(C)(C)C)C(=O)c1cccc(Cl)c1 (centres unmarked) [Bupropion Hydrobromide 117] )
0.32%

* * *

# experimental-details: Recrystallization screen for bupropion hydrobromide polymorphic forms (PXRD)
# Assay type: physicochemical
# recorded-conditions: recrystallized product; solvent/cosolvent differ per trial, trial no. in label
Assign labels as follows, please: condition met for K.F. (%) below 0.4%; condition not met for K.F. (%) equal to or exceeding 0.4%.

Worked cases, answers included:
INSERT INTO measurements (compound, class) VALUES
  ('Br.CC(NC(C)(C)C)C(=O)c1cccc(Cl)c1 (centres unmarked) [Bupropion Hydrobromide 112]', 'condition met'),
  ('Br.CC(NC(C)(C)C)C(=O)c1cccc(Cl)c1 (centres unmarked) [Bupropion Hydrobromide 111]', 'condition met'),
  ('Br.CC(NC(C)(C)C)C(=O)c1cccc(Cl)c1 (centres unmarked) [Bupropion Hydrobromide 098A]', 'condition met');

I'd appreciate it if you could check whether Br.CC(NC(C)(C)C)C(=O)c1cccc(Cl)c1 (centres unmarked) [Bupropion Hydrobromide 122] has K.F. (%) smaller than 0.4%.
condition not met

* * *

# experimental-details: pH of 0.5% aqueous solution of bupropion salts
# Format: physicochemical
# recorded-conditions: 0.5% aqueous solution, original API salts
Let's look at some compounds and their measured pH (aq. 0.5%), Original (Initial APIs).

// worked examples, pH (aq. 0.5%), Original (Initial APIs) included
INSERT INTO assay_data (compound, recorded_result) VALUES
  ('CC(NC(C)(C)C)C(=O)c1cccc(Cl)c1.Cl (racemic) [Bupropion HCl, reference compound]', 5.90),
  ('CC(NC(C)(C)C)C(=O)c1cccc(Cl)c1.O=C(O)C(O)C(O)C(=O)O (stereo not shown) [Bupropion tartrate acid]', 3.62),
  ('Br.CC(NC(C)(C)C)C(=O)c1cccc(Cl)c1 (stereo not shown) [Bupropion HBr, bupropion hydrobromide]', 5.92);

Consider the compound CC(NC(C)(C)C)C(=O)c1cccc(Cl)c1.CC(NC(C)(C)C)C(=O)c1cccc(Cl)c1.O=C(O)C(O)C(O)C(=O)O (stereo not shown) [Bupropion tartrate neutral] and give its measured pH (aq. 0.5%), Original (Initial APIs).
3.62

* * *

# experimental-details: Solubility of Bupropion HBr vs Bupropion HCl in water, EtOH, IPA
# Format: physicochemical
# recorded-conditions: ethanol, organic solvent or mixture; EtOH; read-out: Solubility, EtOH
observed-property: solubility (mg/mL)
Give just the number in mg/mL; leave the unit off.

Give its solubility value. Item: CC(NC(C)(C)C)C(=O)c1cccc(Cl)c1.Cl (racemic) [Bupropion HCl, reference compound]
80

* * *

# experimental-details: Solubility of Bupropion HBr vs Bupropion HCl in water, EtOH, IPA
# Format: physicochemical
# recorded-conditions: water; read-out: Solubility, Water
observed-property: solubility (mg/mL)
Enter your answer as a number in mg/mL; do not include the unit.

So what does the record say about solubility for CC(NC(C)(C)C)C(=O)c1cccc(Cl)c1.Cl (racemic) [Bupropion HCl, reference compound] ?
270

All figures here come from patent US7884136B2.
